- Tgt: Chromo domain-containing protein 1 (Saccharomyces cerevisiae (strain ATCC 204508 / S288c) (Baker's yeast))
- Assay summary: ScCHD-1 Enzyme Inhibition Assay
- Format: functional
- Design: scale not given: in the data most compounds retested in dose-response had high values
- Test settings: 30 µM
Property label: Percent Effect

- Compound: "CC(C)c1noc(CCC(=O)NCC2CCS(=O)(=O)C2)n1 (centres undefined)"
  Property label: "Percent Effect"
  Value measured: "-12.2%"
- Compound: "Cc1nc(CN2CCO[C@@H]3CN(C(=O)NC(C)C)CC[C@@H]3C2)cs1"
  Property label: "Percent Effect"
  Value measured: "-1.55%"
- Compound: "CC(=O)N1[C@@H](C(=O)NCC2CC2)C[C@@H]2CN(Cc3ccco3)C[C@@H]21"
  Property label: "Percent Effect"
  Value measured: "-7.56%"
- Compound: "NC(=O)N1CCC2(CC1)CN(Cc1cccnc1)C(=O)CO2"
  Property label: "Percent Effect"
  Value measured: "-1.18%"
- Compound: "CC(C)c1cc(NC(=O)CN2CCC(N3CCCCC3)CC2)on1"
  Property label: "Percent Effect"
  Value measured: "-5.62%"
- Compound: "CC(C)CNc1nc(C(=O)/N=c2\\[nH]nc(C(C)(C)C)s2)cs1"
  Property label: "Percent Effect"
  Value measured: "1.47%"
- Compound: "Cc1ncncc1C(=O)Nc1cnn(CC(=O)NC2CCCC2)c1"
  Property label: "Percent Effect"
  Value measured: "-20.3%"
- Compound: "CCc1nc(C2CCCN2CCn2cncn2)no1 (centres undefined)"
  Property label: "Percent Effect"
  Value measured: "-4.93%"
- Compound: "Cc1nc(CNCC2CN(C)CCO2)cs1 (centres undefined)"
  Property label: "Percent Effect"
  Value measured: "-11.4%"
- Compound: "COC(=O)CC(c1ccccc1)c1oc(C)cc(=O)c1O (centres undefined)"
  Property label: "Percent Effect"
  Value measured: "-1.53%"
- Compound: "COCCN1C[C@@H]2CN(C(=O)[C@H]3CCCO3)C[C@@H]2C1=O"
  Property label: "Percent Effect"
  Value measured: "-7.63%"
- Compound: "Cc1c(CN2CCCC(c3[nH]ncc3S(C)(=O)=O)C2)cnn1C (centres undefined)"
  Property label: "Percent Effect"
  Value measured: "-24.1%"
- Compound: "COc1ccc(CC(=O)N2C[C@@H]3COC[C@]3(CN(C)C)C2)cc1"
  Property label: "Percent Effect"
  Value measured: "1.23%"
- Compound: "CC(C)CN(Cc1nc2c(cnn2C)c(=O)[nH]1)C(C)C"
  Property label: "Percent Effect"
  Value measured: "0.0184%"
- Compound: "Cc1noc(C)c1CN(C)C(=O)NC1CCN(c2ncccn2)CC1"
  Property label: "Percent Effect"
  Value measured: "-9.27%"
- Compound: "Cc1cnn(CC2CCCN2C(=O)c2cc(Cl)ccc2F)c1 (centres undefined)"
  Property label: "Percent Effect"
  Value measured: "2.99%"
- Compound: "COc1cc(S(=O)(=O)N2CCc3ccc(F)cc32)cc(C(=O)O)c1OC"
  Property label: "Percent Effect"
  Value measured: "-15.2%"
- Compound: "Cc1cc(NC(=O)CCN(CC2CCOC2)C2CC2)no1 (centres undefined)"
  Property label: "Percent Effect"
  Value measured: "-13.2%"
- Compound: "CCNC(=O)[C@@H]1C[C@H](NC(=O)Cc2ccsc2)CN1Cc1ccc(C)o1"
  Property label: "Percent Effect"
  Value measured: "80.5%"
- Compound: "Cc1cc(C)n(CC2CCCN2CCS(=O)(=O)c2ccccc2)n1 (centres undefined)"
  Property label: "Percent Effect"
  Value measured: "1.56%"
- Compound: "CC(C)=CCN1CCC(c2nccn2Cc2cscn2)CC1"
  Property label: "Percent Effect"
  Value measured: "-4.64%"
- Compound: "COc1cccc(CNc2cnn(C)c(=O)c2Cl)c1"
  Property label: "Percent Effect"
  Value measured: "-5.75%"
- Compound: "CC(C)(C)c1nnc(CN2CCCC(Cn3cncn3)C2)o1 (centres undefined)"
  Property label: "Percent Effect"
  Value measured: "-1.8%"
- Compound: "COc1ccc(F)cc1C(=O)N(C)Cc1cc(C)on1"
  Property label: "Percent Effect"
  Value measured: "-1.49%"

Data provenance: ChEMBL document CHEMBL3988442
